# Experimental System: human Y4 receptor (human, UniProt P50391 1-375)
# Sequence (P50391 whole entry): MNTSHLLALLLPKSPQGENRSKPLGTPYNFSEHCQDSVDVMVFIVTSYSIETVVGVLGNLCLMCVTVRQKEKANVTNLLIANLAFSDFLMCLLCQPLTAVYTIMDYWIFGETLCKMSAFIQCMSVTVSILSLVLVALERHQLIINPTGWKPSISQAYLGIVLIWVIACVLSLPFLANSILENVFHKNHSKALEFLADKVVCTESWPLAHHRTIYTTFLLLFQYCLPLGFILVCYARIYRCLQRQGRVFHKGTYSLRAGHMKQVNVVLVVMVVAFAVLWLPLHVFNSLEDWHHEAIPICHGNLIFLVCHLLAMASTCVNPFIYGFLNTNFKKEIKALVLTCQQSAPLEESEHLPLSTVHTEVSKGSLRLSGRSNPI
# Experiment Summary: 125I-PP displacement
The reader will find reported IC50 values listed item by item below.
Recorded Metric: IC50 (nM)

{"Binder": "GAPLEPVYPGDNATPEELARYAAELRRYINKLTRPRY [4060134]", "Units Symbol": "nM", "Obs Value": 0.143}
{"Binder": "HAPLKPKAPGDNATPEQLAKYAAELRRYINKLTRPRY [4059861]", "Units Symbol": "nM", "Obs Value": 0.1}
{"Binder": "GAPLEPVYPGDNATPEQMAKYYSELRRYINKLTRPRY [4060147]", "Units Symbol": "nM", "Obs Value": 0.077}
{"Binder": "AAPLEPVYPGDDATPQQMARYYSELRRYINKLTRPRY [4060214]", "Units Symbol": "nM", "Obs Value": 0.035}
{"Binder": "PAPLEPTYPGDNATPEQLAKYYSELRRYINHLTRPRY [4060273]", "Units Symbol": "nM", "Obs Value": 0.118}
{"Binder": "PAPLEPHYPGDNATPEEMAKYASELRRYINKLTRPRY [4059936]", "Units Symbol": "nM", "Obs Value": 0.118}
{"Binder": "PAPLEPEAPGDNATPEQMAKYAAALRRYINKLTRPRY [4059974]", "Units Symbol": "nM", "Obs Value": 0.097}
{"Binder": "DAPLEPRYPGDNATPEEMAKYAAELRRYINKLTRPRY [4060145]", "Units Symbol": "nM", "Obs Value": 0.173}
{"Binder": "PAPLEPHYPGDNATPEELARYAAELRRYINKLTRPRY [4060139]", "Units Symbol": "nM", "Obs Value": 0.121}
